- assay.remarks: Metabolic stability in mouse hepatocytes assessed as intrinsic clearance
- Format: ADME, cell-based, Hepatocyte
quantity.kind: intrinsic clearance (CLint) (µL/min/mg)

Example entries begin here.
Cn1ncc2cc(-c3cnc4[nH]cc(Cl)c4c3N3CCC4(CCNC4=O)CC3)ccc21 :: 64
Cn1ncc2cc(-c3cnc4[nH]ncc4c3N3CCC4(CCNC4=O)CC3)ccc21 :: 59

[P] Cn1ncc2cc(-c3cnc4[nH]cnc4c3N3CCC4(CCNC4=O)CC3)ccc21
[Q] Cn1ncc2cc(-c3cnc4[nH]ccc4c3N3CCC4(CCNC4=O)CC3)ccc21
[R] Cn1ncc2cc(-c3cnc4[nH]nc(Cl)c4c3N3CCC4(CCNC4=O)CC3)ccc21
Input: Put the compounds in ascending order of intrinsic clearance (CLint). Hello, could you send the labels back in the order asked? Thank you.
Output: R, Q, P
(R: 15 µL/min/mg, Q: 78 µL/min/mg, P: 158 µL/min/mg)

====

- assay.remarks: Volume of distribution at steady state in C57Bl/6 mouse at 10 mg/kg, po or 2 mg/kg, iv
- Assay type: ADME, organism-based
- details: in vivo, read-out: Vdss
quantity.kind: Vd (L/kg)
Report the figure in L/kg without appending any unit label.

// recorded Vd for Cn1ncc2cc(-c3cnc4[nH]nc(Cl)c4c3N3CCC4(CCNC4=O)CC3)ccc21 : 0.8

====

- assay.remarks: Clearance in C57Bl/6 mouse at 10 mg/kg, po or 2 mg/kg, iv
- Format: ADME, organism-based
- details: in vivo
quantity.kind: clearance (mL/min/kg)
Numbers only here, please. The scale is mL/min/kg.

// Cn1ncc2cc(-c3cnc4[nH]nc(Cl)c4c3N3CCC4(CCNC4=O)CC3)ccc21 : clearance value = 17

====

- assay.remarks: Oral bioavailability in C57Bl/6 mouse at 10 mg/kg
- Type: ADME, organism-based
- details: in vivo
quantity.kind: bioavailability (%)
State the answer as a number, implicitly in %.

bioavailability for Cn1ncc2cc(-c3cnc4[nH]nc(Cl)c4c3N3CCC4(CCNC4=O)CC3)ccc21 is 8

====

- tested.on: CDK8/Cyclin C (Homo sapiens)
- Sequence (P49336 whole entry, one chain of several): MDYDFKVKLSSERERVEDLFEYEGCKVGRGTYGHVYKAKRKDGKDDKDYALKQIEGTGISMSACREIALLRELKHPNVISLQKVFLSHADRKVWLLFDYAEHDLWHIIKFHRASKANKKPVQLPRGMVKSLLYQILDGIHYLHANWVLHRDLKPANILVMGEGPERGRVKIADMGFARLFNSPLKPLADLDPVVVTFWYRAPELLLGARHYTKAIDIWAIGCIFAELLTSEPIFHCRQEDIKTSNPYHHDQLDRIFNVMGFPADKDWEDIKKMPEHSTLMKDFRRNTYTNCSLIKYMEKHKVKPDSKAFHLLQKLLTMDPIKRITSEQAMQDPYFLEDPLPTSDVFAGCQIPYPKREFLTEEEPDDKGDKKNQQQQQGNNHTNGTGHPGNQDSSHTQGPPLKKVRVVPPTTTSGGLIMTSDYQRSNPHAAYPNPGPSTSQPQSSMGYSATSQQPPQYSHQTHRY
- assay.remarks: Inhibition of tracer 236 binding to recombinant human His-tagged full length CDK8/Cyclin C expressed in baculovirus expression system by Lanthascreen assay
pIC50: −log10 of the molar value.
quantity.kind: pIC50

O=C1NCCC12CCN(c1c(-c3ccc4ncnn4c3)cnc3[nH]ccc13)CC2 :: 6.56
Cn1ncc2cc(-c3cnc4[nH]ccc4c3N3CCC4(CC3)CNC(=O)O4)ccc21 :: 8.15
Cn1ncc2cc(-c3cnc4[nH]cc(Cl)c4c3N3CCC4(CCNC4=O)CC3)ccc21 :: 8.70

[I] Cn1ncc2cc(-c3cnc4[nH]ncc4c3N3CCC4(CCNC4=O)CC3)ccc21
[II] Cn1ncc2cc(-c3cnc4[nH]ccc4c3N3CC4(CCNC4=O)C3)ccc21
Input: Looking at I and II , which one comes out lower in pIC50 terms? Identify your selection by its label.
Output: II
(II: 6.27, I: 6.75)

====

- tested.on: Cyclin-C/Cyclin-dependent kinase 19 (Homo sapiens, UniProt Q9BWU1)
- Sequence (Q9BWU1 whole entry, the tested form may be a part): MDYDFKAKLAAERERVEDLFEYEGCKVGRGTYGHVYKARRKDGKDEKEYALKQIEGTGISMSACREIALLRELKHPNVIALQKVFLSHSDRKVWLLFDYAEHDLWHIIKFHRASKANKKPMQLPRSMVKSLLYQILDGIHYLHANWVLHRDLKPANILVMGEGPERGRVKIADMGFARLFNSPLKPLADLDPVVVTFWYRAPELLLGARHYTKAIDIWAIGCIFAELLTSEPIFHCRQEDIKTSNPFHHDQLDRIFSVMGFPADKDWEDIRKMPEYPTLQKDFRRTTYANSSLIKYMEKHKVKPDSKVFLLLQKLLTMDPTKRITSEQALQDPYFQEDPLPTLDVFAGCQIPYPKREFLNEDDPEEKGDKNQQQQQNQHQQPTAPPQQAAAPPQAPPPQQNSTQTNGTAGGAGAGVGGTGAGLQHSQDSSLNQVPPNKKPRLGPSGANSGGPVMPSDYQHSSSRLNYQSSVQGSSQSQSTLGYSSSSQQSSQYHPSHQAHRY
- Sequence (P24863 whole entry, further chain, the tested form may be a part): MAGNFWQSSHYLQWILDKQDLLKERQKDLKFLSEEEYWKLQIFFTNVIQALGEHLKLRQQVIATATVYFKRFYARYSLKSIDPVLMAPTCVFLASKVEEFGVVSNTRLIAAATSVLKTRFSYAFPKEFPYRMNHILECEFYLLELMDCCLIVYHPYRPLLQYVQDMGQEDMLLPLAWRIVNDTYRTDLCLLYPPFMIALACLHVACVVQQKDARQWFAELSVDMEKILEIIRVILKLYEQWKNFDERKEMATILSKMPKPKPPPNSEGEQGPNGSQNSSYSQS
- assay.remarks: Inhibition of tracer 236 binding to recombinant human GST/His-tagged CDK11 (1 to 502 residues)/Cyclin C( 1 to 283 residues) expressed in insect cells by Lanthascreen assay
pIC50: −log10 of the molar value.
quantity.kind: pIC50

Please review the entries below; each comes with its answer.
O=C1NCCC12CCN(c1c(-c3ccc4ncsc4c3)cnc3[nH]ccc13)CC2 :: 7.10
Cn1cnc2cc(-c3cnc4[nH]ccc4c3N3CCC4(CCNC4=O)CC3)ccc21 :: 7.30
Cn1ncc2cc(-c3cnc4[nH]ccc4c3N3CCC4(CCCNC4=O)CC3)ccc21 :: 8.52

[P] Cn1ncc2cc(-c3cnc4[nH]nc(Cl)c4c3N3CCC4(CCNC4=O)CC3)ccc21
[Q] O=C1NCCC12CCN(c1c(-c3ccc4[nH]cnc4c3)cnc3[nH]ccc13)CC2
[R] O=C1NCCC12CCN(c1c(-c3ccn4ccnc4c3)cnc3[nH]ccc13)CC2
[S] Cn1ncc2cc(-c3cnc4[nH]cnc4c3N3CCC4(CCNC4=O)CC3)ccc21
Input: Hey, quick one: sort these by pIC50, low to high? API: response body holds the labels in the requested order.
Output: R, Q, S, P
(R: 7.17, Q: 7.77, S: 8.30, P: 8.70)

Hello, the source for this data is ChEMBL document CHEMBL4825780, in case you need it.
